# System: HT-29
# EXPERIMENT: Anticancer activity against human HT-29 cells assessed as reduction in cell viability measured after 72 hrs by SRB assay
# Format: functional, cell-based
# CONDITIONS: HT-29, 72 h
RECORDED_ENDPOINT: IC50 (µM)
Answer in µM, number only, no unit symbol.

Illustrative cases are given below, each with its answer.
compound=C=C1CC[C@@H]2[C@](C)(COC(C)=O)[C@H](OC(C)=O)CC[C@@]2(C)[C@@H]1C[C@H](SC(=S)N1CCN(c2ccc(O)cc2)CC1)C1=CCOC1=O system=HT-29 assay_result=4.93
compound=Cc1c2ccncc2c(C)c2c1[nH]c1ccccc12 system=HT-29 assay_result=2.16
compound="C=C1CC[C@@H]2[C@](C)(COC(C)=O)[C@H](OC(C)=O)CC[C@@]2(C)[C@@H]1C[C@H](SC(=S)N1CCN(C(=O)C2COc3ccccc3O2)CC1)C1=CCOC1=O (stereo partly drawn)" system=HT-29 assay_result=9.18
compound="C=C1CC[C@@H]2[C@](C)(CO)[C@H](O)CC[C@@]2(C)[C@@H]1C/C=C1/C(=O)OC[C@H]1O [ANDROGRAPHOLIDE]" system=HT-29 assay_result=8.91
compound=C=C1CC[C@@H]2[C@](C)(COC(C)=O)[C@H](OC(C)=O)CC[C@@]2(C)[C@@H]1C[C@H](SC(=S)N1CCc2ccccc2C1)C1=CCOC1=O system=HT-29 assay_result=7.08

Shifting focus to the compound that follows.
I looked up `C=C1CC[C@@H]2[C@](C)(COC(C)=O)[C@H](OC(C)=O)CC[C@@]2(C)[C@@H]1C[C@H](SC(=S)N1CCN(c2ncccn2)CC1)C1=CCOC1=O` and its IC50 for HT-29 was 4.53

====

# System: A549
# EXPERIMENT: Anticancer activity against human A549 cells assessed as reduction in cell viability measured after 72 hrs by SRB assay
# Assay type: functional, cell-based
# CONDITIONS: A549, 72 h
RECORDED_ENDPOINT: pIC50
pIC50 here: minus log base 10 of the concentration, concentration in moles per litre.

smiles_repr=C=C1CC[C@@H]2[C@](C)(COC(C)=O)[C@H](OC(C)=O)CC[C@@]2(C)[C@@H]1C[C@H](SC(=S)N1CCOCC1)C1=CCOC1=O system=A549 assay_result=4.83
smiles_repr=C=C1CC[C@@H]2[C@](C)(COC(C)=O)[C@H](OC(C)=O)CC[C@@]2(C)[C@@H]1C[C@H](SC(=S)N1CCN(c2ccc(C)cc2)CC1)C1=CCOC1=O system=A549 assay_result=4.56
smiles_repr=C=C1CC[C@@H]2[C@](C)(COC(C)=O)[C@H](OC(C)=O)CC[C@@]2(C)[C@@H]1C[C@H](SC(=S)N(C)Cc1ccc(F)cc1)C1=CCOC1=O system=A549 assay_result=4.93
smiles_repr=C=C1CC[C@@H]2[C@](C)(COC(C)=O)[C@H](OC(C)=O)CC[C@@]2(C)[C@@H]1C[C@H](SC(=S)N1CCN(c2ccccc2OC)CC1)C1=CCOC1=O system=A549 assay_result=4.55

As a next step, examine the compound that follows.
Note to self: pIC50 recorded for `C=C1CC[C@@H]2[C@](C)(COC(C)=O)[C@H](OC(C)=O)CC[C@@]2(C)[C@@H]1C[C@H](SC(=S)N(Cc1ccccc1)C(C)C)C1=CCOC1=O` was 4.65

====

# EXPERIMENT: Anticancer activity against rat ASK cells assessed as reduction in cell viability measured after 72 hrs by SRB assay
# Assay type: functional, cell-based
The reader will find reported pIC50 values listed item by item below.
API: returns pIC50 as number; meaning -log10 of concentration in mol/L.

compound=Cc1c2ccncc2c(C)c2c1[nH]c1ccccc12 assay_result=5.66

// recorded pIC50 for `C=C1CC[C@@H]2[C@](C)(COC(C)=O)[C@H](OC(C)=O)CC[C@@]2(C)[C@@H]1C[C@H](SC(=S)N(CC)Cc1ccncc1)C1=CCOC1=O` : 4.74

Item: `C=C1CC[C@@H]2[C@](C)(COC(C)=O)[C@H](OC(C)=O)CC[C@@]2(C)[C@@H]1C[C@H](SC(=S)N1CCN(c2ccccc2F)CC1)C1=CCOC1=O` | pIC50: 5.02

The compound `C=C1CC[C@@H]2[C@](C)(COC(C)=O)[C@H](OC(C)=O)CC[C@@]2(C)[C@@H]1C[C@H](SC(=S)N1CCc2ccccc2C1)C1=CCOC1=O` showed pIC50 equal to 4.70

For record `C=C1CC[C@@H]2[C@](C)(COC(C)=O)[C@H](OC(C)=O)CC[C@@]2(C)[C@@H]1C[C@H](SC(=S)N1CCN(c2ncccn2)CC1)C1=CCOC1=O` the listed pIC50 is 5.14

====

# Test system: HuCC-A1
# EXPERIMENT: Anticancer activity against human HuCCa1 cells assessed as reduction in cell viability measured after 72 hrs by SRB assay
# Type: functional, cell-based
# CONDITIONS: HuCC-A1, 72 h
RECORDED_ENDPOINT: pIC50
To interpret pIC50, take it as minus log10 of a concentration measured in moles per litre.

molecule=C=C1CC[C@@H]2[C@](C)(COC(C)=O)[C@H](OC(C)=O)CC[C@@]2(C)[C@@H]1C[C@H](SC(=S)N1CCN(c2ccccc2OC)CC1)C1=CCOC1=O recorded_endpoint=pIC50 assay_result=5.09

HuCC-A1 pIC50 of `C=C1CC[C@@H]2[C@](C)(COC(C)=O)[C@H](OC(C)=O)CC[C@@]2(C)[C@@H]1C[C@H](SC(=S)N(Cc1ccccc1)C(C)C)C1=CCOC1=O` is 5.06

pIC50 for HuCC-A1 with input `C=C1CC[C@@H]2[C@](C)(COC(C)=O)[C@H](OC(C)=O)CC[C@@]2(C)[C@@H]1C[C@H](SC(=S)N1CCN(c2ccccc2)CC1)C1=CCOC1=O` equals 5.02

Given the molecule `C=C1CC[C@@H]2[C@](C)(COC(C)=O)[C@H](OC(C)=O)CC[C@@]2(C)[C@@H]1C[C@H](SC(=S)N1CCN(Cc2ccc(Cl)cc2)CC1)C1=CCOC1=O` and test system HuCC-A1, the measured pIC50 is 4.67

Query `C=C1CC[C@@H]2[C@](C)(COC(C)=O)[C@H](OC(C)=O)CC[C@@]2(C)[C@@H]1C[C@H](SC(=S)N1CCC(Cc2ccccc2)CC1)C1=CCOC1=O` on HuCC-A1; pIC50 returned: 4.71

So the reported pIC50 for `C=C1CC[C@@H]2[C@](C)(COC(C)=O)[C@H](OC(C)=O)CC[C@@]2(C)[C@@H]1C[C@H](SC(=S)N1CCc2ccccc2C1)C1=CCOC1=O` , on HuCC-A1, turned out to be 5.14

GET /values?item= `C=C1CC[C@@H]2[C@](C)(COC(C)=O)[C@H](OC(C)=O)CC[C@@]2(C)[C@@H]1C[C@H](SC(=S)N(C)Cc1ccccc1)C1=CCOC1=O` &system= HuCC-A1 returns pIC50: 5.06

Short answer on HuCC-A1 for C=C1CC[C@@H]2[C@](C)(COC(C)=O)[C@H](OC(C)=O)CC[C@@]2(C)[C@@H]1C[C@H](SC(=S)N1CCc2ccccc2C1c1ccccc1)C1=CCOC1=O (some centres undefined) , pIC50: 5.03

Item `C=C1CC[C@@H]2[C@](C)(COC(C)=O)[C@H](OC(C)=O)CC[C@@]2(C)[C@@H]1C[C@H](SC(=S)N1CCN(Cc2ccc3c(c2)OCO3)CC1)C1=CCOC1=O` ; assay system HuCC-A1; pIC50 reported as 4.94

====

# Test system: A549
# EXPERIMENT: Anticancer activity against human A549 cells assessed as reduction in cell viability measured after 72 hrs by SRB assay
# Type: functional, cell-based
# CONDITIONS: A549, 72 h
RECORDED_ENDPOINT: IC50

# IC50 of `C=C1CC[C@@H]2[C@](C)(COC(C)=O)[C@H](OC(C)=O)CC[C@@]2(C)[C@@H]1C[C@H](SC(=S)N1CCN(Cc2ccc3c(c2)OCO3)CC1)C1=CCOC1=O` = 29.5 µM

Per the records, this molecule ( `C=C1CC[C@@H]2[C@](C)(COC(C)=O)[C@H](OC(C)=O)CC[C@@]2(C)[C@@H]1C[C@H](SC(=S)N1CCN(c2ccccc2F)CC1)C1=CCOC1=O` ) has IC50 equal to 27.9 µM

The value of IC50 measured for the molecule C=C1CC[C@@H]2[C@](C)(COC(C)=O)[C@H](OC(C)=O)CC[C@@]2(C)[C@@H]1C[C@H](SC(=S)N1CCN(C(=O)C2COc3ccccc3O2)CC1)C1=CCOC1=O (some centres not stated) turned out to be 23.4 µM

`C=C1CC[C@@H]2[C@](C)(COC(C)=O)[C@H](OC(C)=O)CC[C@@]2(C)[C@@H]1C[C@H](SC(=S)N1CCN(c2ccccc2)CC1)C1=CCOC1=O` yielded IC50 of 28.9 µM

Looking up `C=C1CC[C@@H]2[C@](C)(COC(C)=O)[C@H](OC(C)=O)CC[C@@]2(C)[C@@H]1C[C@H](SC(=S)N(Cc1ccccc1)Cc1ccccc1)C1=CCOC1=O` , I see its IC50 listed as 22.9 µM

Input C=C1CC[C@@H]2[C@](C)(COC(C)=O)[C@H](OC(C)=O)CC[C@@]2(C)[C@@H]1C[C@H](SC(=S)N1CCN(C(c2ccccc2)c2ccc(Cl)cc2)CC1)C1=CCOC1=O (some centres not stated) . Output IC50: > 50 µM

# molecule `C=C1CC[C@@H]2[C@](C)(COC(C)=O)[C@H](OC(C)=O)CC[C@@]2(C)[C@@H]1C[C@H](SC(=S)N(CC)Cc1ccncc1)C1=CCOC1=O` ; its IC50 = 9.42 µM
